Each recorded value in this set is attributed to the nanobody polyreactivity screen of Harvey et al. (2022).

- assay-notes: yeast display, Sf9 membrane polyspecificity reagent, FACS + sequencing; frameworks hold sequencing errors
recorded-endpoint: polyreactivity (PSR sort gate)

Some solved entries appear below for comparison.
Tell me polyreactivity (PSR sort gate) reported for QVQLVESGGGLVQAGGSLRLSCAASGRIFSLYAMGWYRQAPGKERELVAAISSSGGRTYYADSVKGRFTISRDNAKNTVYLQMNSLKPEDTAVYYCADLVFSWWTFEYWGQGTQVTVSS
high polyreactivity

Tell me polyreactivity (PSR sort gate) reported for QVQLVESGGGLVQAGGSLRLSCAASGSILPYYAMGWYRPAPGKERELVATITDGTDTYYADSVKGRFTISRDNAKNTVYLQMTSLKPEDTAVYYCARKQYWGYDYWGQGTQVTVSS
low polyreactivity

Tell me polyreactivity (PSR sort gate) reported for QVQIVESGGGLVQAGGSLRLSCAASGSIFGTYAMGWYRQAPGKERELVAAITRRGGSTFYADSVKGRFTISRDNAKNTVYLQMNSLKPEDTAVYDCAAPPYYWGQGTQVTVSS
high polyreactivity

Tell me polyreactivity (PSR sort gate) reported for QVQLVESGGGLVQAGGSLRLSCAASGSTFQSYAMGWYRQAPWKERELVAAITTTGTRTYYADSVKGRFTISRDNAKNTVYLQMNSLKPEDTAVYYCNAQRLQAHRTSRRYGYWGQGTQVTVSS
high polyreactivity

Tell me polyreactivity (PSR sort gate) reported for QVQLVESGGGLVQAGGSLRLSCAASGSTFDNNGMGWYRQAPGKERELVASITFNVGSTYYADSVKGRFTISRDNAKNTVYLQMNSLKPEDTAVYYCAADDLNLSQALGYDYWGQGTQVTVSS
low polyreactivity

Next:
Tell me polyreactivity (PSR sort gate) reported for QVQLVESGGGLVQAGGSLRLSCAASGSIFWQNTMGWYRQAPGKERELVATISSGDSTYYADSVKGRFTISRDNAKNTVYLQMNSLKPEDTAVYYCNTTEHKYVSSFEYGYWGQGTQVTVSS
low polyreactivity

Tell me polyreactivity (PSR sort gate) reported for QVQLVESGGGLVQAGGSLRLSCAASGRILTLYAMGWYRQAPGKERELVAGINRGDVSTYYADSVKGRFTISRDNAKNSVYLQMNSLKPEDTAVYYCYADPPPDYYPDKDNYWGQGSQVTVSS
low polyreactivity

Tell me polyreactivity (PSR sort gate) reported for QVQLVESGGGLVQAGGSLRLSCAASGRTFQYNVMGWYRQAPGKEREFVAAITWNGGSTYYADSVKGRFTISRDNAKNTVYLQMNSLKPEDPAVYYCAARWTKKQEYGYWGQGTQVTVSS
low polyreactivity

Tell me polyreactivity (PSR sort gate) reported for QVQLVESGGGLVQAGGSLRLSCAASGRIFSDNAMGWYRQAPGKERELVAAITDRGGSTYYADSVKGRFTISRDNAQNTVYLQMNSLKPEDTAVYYCAARNTPAQLDYWGQGTQVTVSS
low polyreactivity

Tell me polyreactivity (PSR sort gate) reported for QVQLVESGVGLVQAGGSLRLSCAASGSIFQGYAMGWYRQAPGKERELVAGITSSGGRTRYADSLKGRFTISRDNAKNTVYLQMNSLKPEDTAVYSCAADYVRHIGYNYWGQGNQVTVSS
high polyreactivity

Tell me polyreactivity (PSR sort gate) reported for QVQLVESGGGLVQAGGSLRLSCAASGRTFDVNAMGWYRQAPGKERELVAAITWDGGSTYYADSVKGRFTISRDNAKNTVYLQMNSLKPEDTAVYYCAADFIQGAWWYVTYRYTYEYWGQGTQVTVSS
low polyreactivity
